Data origin, for the record: patent US20110262445A1

Biological target: T1, human IL-23 (human, UniProt P29460 23-328; Q9NPF7 20-189)
T1 construct: Recombinant (Ebioscience); HIS-tagged in flow cytometry, biotinylated in some assays; also called hIL-23; rhIL-23
T1 sequence 1: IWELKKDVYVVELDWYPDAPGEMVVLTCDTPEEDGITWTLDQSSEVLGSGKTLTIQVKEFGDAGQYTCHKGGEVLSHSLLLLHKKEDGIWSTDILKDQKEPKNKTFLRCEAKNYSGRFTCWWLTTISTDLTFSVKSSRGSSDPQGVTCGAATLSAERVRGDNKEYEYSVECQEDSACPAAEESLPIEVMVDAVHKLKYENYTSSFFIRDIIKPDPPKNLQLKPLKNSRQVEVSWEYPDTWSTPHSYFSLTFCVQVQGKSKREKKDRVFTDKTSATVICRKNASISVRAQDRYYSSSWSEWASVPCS
T1 sequence 2: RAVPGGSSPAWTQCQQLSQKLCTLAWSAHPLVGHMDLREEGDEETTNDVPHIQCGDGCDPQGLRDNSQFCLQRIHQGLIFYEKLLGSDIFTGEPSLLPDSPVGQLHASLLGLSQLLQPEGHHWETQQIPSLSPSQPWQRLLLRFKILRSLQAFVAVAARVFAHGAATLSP
Assay: ELISA, coated IL-23
property-label: binding result

binder="Antibody 57 (antibody, human IgG1, kappa, V domains shown) VH: EVQLVQSGAEVKKPGATVKISCKASGYTFSDYYLHWVRQRPGKGLEWMGWIDPENGDTEYAPKFQGRVTITADTSTDTGYLELSSLRSEDTAVYYCAANKELRYFDVWGQGTLVTVSS VL: DIQMTQSPSSVSASVGDRVTITCRASQSISINLHWYQQKPGKAPKLLIKFASQSISGVPSRFSGSGSGTDFSLTINSLQPEDFATYYCQQSNSFPLTFGGGTKVEIKR" property_label="binding result" meas_value=binds
binder="Antibody 51 (antibody, human IgG1, kappa, V domains shown) VH: EVQLVQSGAEVKKPGATVKISCKASGYTFSDYYLHWVRQAPGKGLEWMGWIDPENGDTEYAPKFQGRVTITADTSTDTGYLELSSLRSEDTAVYYCAANKELRYFDVWGQGTLVTVSS VL: DIQMTQSPSSVSASVGDRVTITCRASQSISINLHWYQQKPGKAPKLLIYFASQSISGVPSRFSGSGSGTDFSLTINSLQPEDFATYYCQQSNSFPLTFGGGTKVEIKR" property_label="binding result" meas_value=binds
binder="Antibody 52 (antibody, human IgG1, kappa, V domains shown) VH: EVQLVQSGAEVKKPGATVKISCKASGYTFSDYYLHWVRQRPGKGLEWMGWIDPENGDTEYAPKFQGRVTITADTSTDTGYLELSSLRSEDTAVYYCAANKELRYFDVWGQGTLVTVSS VL: DIQMTQSPSSVSASVGDRVTITCRASQSISINLHWYQQKPGKAPKLLIYFASQSISGVPSRFSGSGSGTDFSLTINSLQPEDFATYYCQQSNSFPLTFGGGTKVEIKR" property_label="binding result" meas_value=binds
